molecular target: PCSK9Δhelix (Homo sapiens, UniProt Q8NBP7); construct: Human PCSK9 construct M1-Q692 with an engineered TEV site (residue deletion Y166, R167); made in house; host or cells: CHO; assay: PCSK9Δhelix/Ab20 TR-FRET binding assay; conditions: TR-FRET; Table 8D, disulfide-cyclized extension peptides; read-out: PCSK9Δhelix/Ab20 IC50
Sequence (Q8NBP7 with tags, fused parts or gaps limits assumed): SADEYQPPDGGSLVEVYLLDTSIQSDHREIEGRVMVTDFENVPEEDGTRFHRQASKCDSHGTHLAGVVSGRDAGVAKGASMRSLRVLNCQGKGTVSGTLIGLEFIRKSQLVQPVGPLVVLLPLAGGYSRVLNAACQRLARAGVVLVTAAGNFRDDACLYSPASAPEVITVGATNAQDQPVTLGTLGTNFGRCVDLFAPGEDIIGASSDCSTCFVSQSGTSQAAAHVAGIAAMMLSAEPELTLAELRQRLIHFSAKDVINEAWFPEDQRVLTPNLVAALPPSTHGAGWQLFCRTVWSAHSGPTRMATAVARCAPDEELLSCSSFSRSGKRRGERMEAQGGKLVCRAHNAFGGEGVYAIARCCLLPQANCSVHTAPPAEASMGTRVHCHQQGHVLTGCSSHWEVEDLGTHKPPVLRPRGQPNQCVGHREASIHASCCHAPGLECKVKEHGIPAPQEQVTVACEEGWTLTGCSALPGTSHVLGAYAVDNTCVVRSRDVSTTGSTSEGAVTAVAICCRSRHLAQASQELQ
Sequence (Q8NBP7 31-152 partner limits assumed): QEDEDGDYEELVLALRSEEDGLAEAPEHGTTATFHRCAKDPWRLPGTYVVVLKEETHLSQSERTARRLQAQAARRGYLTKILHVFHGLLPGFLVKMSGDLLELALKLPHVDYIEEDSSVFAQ
Bridge positions count the residues as written; N and C are the ends. Square brackets hold non-standard residues; d marks the D form. Peptide text beside a SMILES is read from it. hArg = N=C(N)NCCCC[C@H](N)C(=O)O
REPORTED ENDPOINT: pIC50
To interpret pIC50, take it as minus log10 of a concentration measured in moles per litre.

[Q] Returns the measured pIC50 for the input compound. Input: CC[C@H](C)[C@@H]1NC(=O)[C@H](CCCCNC(=N)N)NC(=O)[C@H](CCC(N)=O)NC(=O)[C@H](CC(C)C)NC(=O)[C@H](CC(N)=O)NC(=O)[C@H](Cc2c[nH]c3ccccc23)NC(=O)[C@@H]2CCCN2C(=O)[C@H](CC(C)C)NC(=O)[C@H](CCCNC(=N)N)NC(=O)[C@@H](NC(C)=O)CSSC[C@@H](C(N)=O)NC(=O)[C@@H]2CCCN2C(=O)[C@H](CC(C)C)NC(=O)CNC1=O [Compound 117] (Ac-CRLPWNLQ[hArg]IGLPC-NH2; disulfide 1-14)
[A] 6.48

[Q] Given the entry CC[C@H](C)[C@@H]1NC(=O)[C@H](CCCNC(=N)N)NC(=O)[C@H](CCC(N)=O)NC(=O)[C@H](CC(C)C)NC(=O)[C@H](CC(N)=O)NC(=O)[C@H](Cc2c[nH]c3ccccc23)NC(=O)[C@@H]2CCCN2C(=O)[C@H]([C@@H](C)CC)NC(=O)[C@H](Cc2ccccc2)NC(=O)[C@@H](NC(=O)CNC(=O)[C@H](CO)NC(C)=O)CSSC[C@@H](C(N)=O)NC(=O)[C@H](CC(C)C)NC(=O)[C@H](CC(C)C)NC(=O)CNC1=O [Compound 29] (Ac-SGCFIPWNLQRIGLLC-NH2; disulfide 3-16) , report its measured pIC50.
[A] 5.72

----------
biological target: PCSK9Δhelix (Homo sapiens, UniProt Q8NBP7); construct: Human PCSK9 construct M1-Q692 with an engineered TEV site (residue deletion Y166, R167); made in house; host or cells: CHO; assay: PCSK9Δhelix/Ab20 TR-FRET binding assay; conditions: TR-FRET; Table 8E, additional compounds; read-out: PCSK9Δhelix/Ab20 IC50
Square brackets hold non-standard residues; d marks the D form. Peptide text beside a SMILES is read from it. * marks the point of attachment. Propanoyl(3-indol-3-yl) = O=C(CCc1c[nH]c2ccccc12)*; Propanoyl(3-(3-pyridyl)) = O=C(CCc1cccnc1)*; hArg = N=C(N)NCCCC[C@H](N)C(=O)O; X8 = O=C(c1ccc(N2CCOCC2)nc1)*; X31 = Cc1ccc(OCCCC(=O)*)cc1; X12 = O=C(CCCc1ccc(F)cc1)*; X32 = O=C(CCN1CCOCC1)*
y if IC50 is below 1 µM. n if not; exact matches included in n.

[Q] API: query returns whether the compound falls strictly under 1 µM in IC50. Query: CC[C@H](C)[C@H](NC(=O)[C@H](CCCNC(=N)N)NC(=O)[C@@H](NC(=O)[C@H](CC(C)C)NC(=O)[C@H](CC(N)=O)NC(=O)[C@H](Cc1c[nH]c2ccccc12)NC(=O)CCc1cccnc1)C(C)C)C(=O)NCC(=O)N[C@@H](CC(C)C)C(=O)N[C@@H](CC(C)C)C(=O)N[C@@H](CCCNC(=N)N)C(N)=O [Compound 138] ({Propanoyl(3-(3-pyridyl))}-WNLVRIGLLR-NH2)
[A] n

[Q] Hello, I'm reviewing records and need to know if IC50 of CC[C@H](C)[C@H](NC(=O)[C@H](CCCNC(=N)N)NC(=O)[C@@H](NC(=O)[C@H](CC(C)C)NC(=O)[C@H](CC(N)=O)NC(=O)[C@H](Cc1c[nH]c2ccccc12)NC(=O)c1ccc(N2CCOCC2)nc1)C(C)C)C(=O)NCC(=O)N[C@@H](CC(C)C)C(=O)N[C@H](C(=O)N[C@@H](CCCNC(=N)N)C(N)=O)[C@@H](C)O [Compound 172] (X8-WNLVRIGLTR-NH2) is below 1 µM. Could you check?
[A] n

[Q] Problem: For the compound CC[C@H](C)[C@H](NC(=O)[C@H](CCCNC(=N)N)NC(=O)[C@@H](NC(=O)[C@H](CC(C)C)NC(=O)[C@H](CC(N)=O)NC(=O)[C@H](Cc1c[nH]c2ccccc12)NC(=O)CCN1CCOCC1)C(C)C)C(=O)NCC(=O)N[C@@H](CC(C)C)C(=O)N[C@@H](CC(C)C)C(=O)N[C@@H](CCCNC(=N)N)C(N)=O [Compound 137] (X32-WNLVRIGLLR-NH2) , is IC50 under 1 µM?
[A] n

[Q] Please state whether IC50 is below 1 µM for CC[C@H](C)[C@H](NC(=O)[C@H](CCCCNC(=N)N)NC(=O)[C@@H](NC(=O)[C@H](CC(C)C)NC(=O)[C@H](CC(N)=O)NC(=O)[C@H](Cc1c[nH]c2ccccc12)NC(=O)CCCc1ccc(F)cc1)C(C)C)C(=O)NCC(=O)N[C@@H](CC(C)C)C(=O)N[C@@H](CC(C)C)C(=O)N[C@@H](CCCNC(=N)N)C(N)=O [Compound 196] (X12-WNLV[hArg]IGLLR-NH2)
[A] n

[Q] Given CC[C@H](C)[C@H](NC(=O)[C@H](CCCNC(=N)N)NC(=O)[C@@H](NC(=O)[C@H](CC(C)C)NC(=O)[C@H](CC(N)=O)NC(=O)[C@H](Cc1c[nH]c2ccccc12)NC(=O)CCc1c[nH]c2ccccc12)C(C)C)C(=O)NCC(=O)N[C@@H](CC(C)C)C(=O)N[C@H](C(=O)N[C@@H](CCCNC(=N)N)C(N)=O)[C@@H](C)O [Compound 189] ({Propanoyl(3-indol-3-yl)}-WNLVRIGLTR-NH2) , is recorded IC50 strictly lower than 1 µM?
[A] n

[Q] Hello, is IC50 of the following compound strictly smaller than 1 µM? CC[C@H](C)[C@H](NC(=O)[C@H](CCCCNC(=N)N)NC(=O)[C@@H](NC(=O)[C@H](CC(C)C)NC(=O)[C@H](CC(N)=O)NC(=O)[C@H](Cc1c[nH]c2ccccc12)NC(=O)CCCOc1ccc(C)cc1)C(C)C)C(=O)NCC(=O)N[C@@H](CC(C)C)C(=O)N[C@@H](CC(C)C)C(=O)N[C@@H](CCCNC(=N)N)C(N)=O [Compound 207] (X31-WNLV[hArg]IGLLR-NH2)
[A] y

----------
molecular target: PCSK9Δhelix (Homo sapiens); construct: Human PCSK9 construct M1-Q692 with an engineered TEV site (residue deletion Y166, R167); made in house; host or cells: CHO; assay: SPR affinity measurements of peptide binding (Example 8); settings: Table 10, binding to PCSK9Δhelix
pKd: −log10 of the molar value.
Would you please tag the item y when its pKd is 6 or above, and n when it is below?

[Q] API: above_or_equal(metric=pKd, cutoff=6) for item Ac-PWNLVRIGLLR-NH2 [Compound 52]
[A] n

[Q] Is it the case that Ac-WNLVRIGLLR-NH2 [Compound 53] has pKd reaching or exceeding 6?
[A] n

[Q] # check: pKd of Ac-LMPWNLVRIGLLR-NH2 [Compound 50] is greater than or equal to 6
[A] y

----------
Please provide measured IC50 for the entries that follow.
target: UniProtKB Q8NBP7; experiment: PCSK9/EGF(A) TR-FRET binding assay; details: TR-FRET; Table 8D, disulfide-cyclized extension peptides; read-out: PCSK9/EGF(A) IC50
Numbered stars: 1 amine (or outer) side, 2 acyl side, 3 side chain; on linkers, the order of the positions; unused ones are H or OH. Bridge positions count the residues as written; N and C are the ends. Square brackets hold non-standard residues; d marks the D form. Peptide text beside a SMILES is read from it. NH(CH2)9CO = O=C(CCCCCCCCCN[*:1])[*:2]; Aoc = NCCCCCCCC(=O)O

[Q] Entry CC(=O)N[C@H]1CSSC[C@@H](C(N)=O)NC(=O)CCCCCCCNC(=O)[C@H](CCCNC(=N)N)NC(=O)[C@H](CCC(N)=O)NC(=O)[C@H](CC(C)C)NC(=O)[C@H](CC(N)=O)NC(=O)[C@H](Cc2c[nH]c3ccccc23)NC(=O)[C@@H]2CCCN2C(=O)[C@H](CC(C)C)NC(=O)[C@H](CCCNC(=N)N)NC1=O [Compound 86] (Ac-CRLPWNLQR[Aoc]C-NH2; disulfide 1-11) has what IC50?
[A] > 50 µM

[Q] Report IC50 for CC[C@H](C)[C@@H]1NC(=O)[C@@H](CCCNC(=N)N)NC(=O)[C@H](CCC(N)=O)NC(=O)[C@H](CC(C)C)NC(=O)[C@H](CC(N)=O)NC(=O)[C@H](Cc2c[nH]c3ccccc23)NC(=O)[C@@H]2CCCN2C(=O)[C@H](CC(C)C)NC(=O)[C@H](CCCNC(=N)N)NC(=O)[C@@H](NC(C)=O)CSSC[C@@H](C(N)=O)NC(=O)[C@@H]2CCCN2C(=O)[C@H](CC(C)C)NC(=O)CNC1=O [Compound 102] (Ac-CRLPWNLQ[dR]IGLPC-NH2; disulfide 1-14) please.
[A] > 50 µM

[Q] Using the record for CC(=O)N[C@H]1CSSC[C@@H](C(N)=O)NC(=O)CCCCCCCCCNC(=O)[C@H](CCCNC(=N)N)NC(=O)[C@H](CCC(N)=O)NC(=O)[C@H](CC(C)C)NC(=O)[C@H](CC(N)=O)NC(=O)[C@H](Cc2c[nH]c3ccccc23)NC(=O)[C@@H]2CCCN2C(=O)[C@H](CC(C)C)NC(=O)[C@H](CCCNC(=N)N)NC1=O [Compound 84] (Ac-CRLPWNLQR[NH(CH2)9CO]C-NH2; disulfide 1-11) , report its IC50.
[A] > 50 µM

[Q] Need IC50, item CC[C@H](C)[C@@H]1NC(=O)[C@H](CCCNC(=N)N)NC(=O)[C@H](CCCCN)NC(=O)[C@H](CC(C)C)NC(=O)[C@H](CC(N)=O)NC(=O)[C@H](Cc2c[nH]c3ccccc23)NC(=O)[C@@H](NC(C)=O)CSSC[C@@H](C(N)=O)NC(=O)CNC(=O)[C@H](CCC(N)=O)NC(=O)[C@H](CO)NC(=O)CNC1=O [Compound 21] (Ac-CWNLKRIGSQGC-NH2; disulfide 1-12)
[A] > 50 µM

[Q] For the compound shown here, CC(=O)N[C@H]1CSSC[C@@H](C(N)=O)NC(=O)[C@@H]2CCCN2C(=O)[C@H](CC(C)C)NC(=O)CNC(=O)[C@H](C)NC(=O)[C@H](CCCNC(=N)N)NC(=O)[C@H](CCC(N)=O)NC(=O)[C@H](CC(C)C)NC(=O)[C@H](CC(N)=O)NC(=O)[C@H](Cc2c[nH]c3ccccc23)NC(=O)[C@@H]2CCCN2C(=O)[C@H](CC(C)C)NC(=O)[C@H](CCCNC(=N)N)NC1=O [Compound 71] (Ac-CRLPWNLQRAGLPC-NH2; disulfide 1-14) , give the reported IC50.
[A] > 50 µM
